# System: Mycobacterium tuberculosis Erdman (autoluminescent)
# ASSAY INFO: total FIC90 (Loewe) at 90% inhibition, three-drug combination (log2); higher = more antagonistic
# CONDITION NOTES: in vitro model: standard 7H9 glycerol; time point: constant = terminal
Reported total FIC90 is given for each of the following compounds.

| COMPOUND | TESTED TARGET | REPORTED |
| --- | --- | --- |
| COc1nc2ccc(Br)cc2cc1[C@@H](c1ccccc1)[C@@](O)(CCN(C)C)c1cccc2ccccc12 [bedaquiline] + CC[C@@H](CO)NCCN[C@@H](CC)CO [ethambutol] + COc1c(N2C[C@@H]3CCCN[C@@H]3C2)c(F)cc2c(=O)c(C(=O)O)cn(C3CC3)c12 [moxifloxacin] | Mycobacterium tuberculosis Erdman (autoluminescent) | 0.479 |
| COc1nc2ccc(Br)cc2cc1[C@@H](c1ccccc1)[C@@](O)(CCN(C)C)c1cccc2ccccc12 [bedaquiline] + NNC(=O)c1ccncc1 [isoniazid] + CO[C@H]1/C=C/O[C@@]2(C)Oc3c(C)c(O)c4c(O)c(c(/C=N/N5CCN(C)CC5)c(O)c4c3C2=O)NC(=O)/C(C)=C\C=C\[C@H](C)[C@H](O)[C@@H](C)[C@@H](O)[C@@H](C)[C@H](OC(C)=O)[C@@H]1C [rifampicin] | Mycobacterium tuberculosis Erdman (autoluminescent) | 0.0151 |

Need total FIC90 of CC(C)/N=c1\cc2n(-c3ccc(Cl)cc3)c3ccccc3nc-2cc1Nc1ccc(Cl)cc1 [clofazimine] + CC(=O)NC[C@H]1CN(c2ccc(N3CCOCC3)c(F)c2)C(=O)O1 [linezolid] + CO[C@H]1/C=C/O[C@@]2(C)Oc3c(C)c(O)c4c(O)c(c(/C=N/N5CCN(C6CCCC6)CC5)c(O)c4c3C2=O)NC(=O)/C(C)=C\C=C\[C@H](C)[C@H](O)[C@@H](C)[C@@H](O)[C@@H](C)[C@H](OC(C)=O)[C@@H]1C [rifapentine] , thanks. 0.805
